Data credit: patent US20240270821A1

System: human glucagon receptor (human) (UniProt P47871)
Sequence (P47871 26-477): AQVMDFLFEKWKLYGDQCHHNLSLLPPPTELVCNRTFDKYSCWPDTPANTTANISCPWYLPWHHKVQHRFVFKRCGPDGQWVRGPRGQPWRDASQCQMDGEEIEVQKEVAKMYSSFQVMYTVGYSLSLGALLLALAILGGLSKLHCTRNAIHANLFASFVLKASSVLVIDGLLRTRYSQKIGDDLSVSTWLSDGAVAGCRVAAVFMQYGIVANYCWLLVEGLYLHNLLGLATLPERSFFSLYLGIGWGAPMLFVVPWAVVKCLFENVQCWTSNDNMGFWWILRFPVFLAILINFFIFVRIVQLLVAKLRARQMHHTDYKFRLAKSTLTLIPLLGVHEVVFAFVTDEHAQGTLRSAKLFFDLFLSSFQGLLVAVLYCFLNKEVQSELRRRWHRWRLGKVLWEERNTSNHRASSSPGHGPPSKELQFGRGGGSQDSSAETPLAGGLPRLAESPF
Test name: cell-based or functional assay
Starred links: 1 amine or outer side, 2 acyl side, 3 side chain; linkers in the order of their positions; H or OH if unused. Non-standard residues stand in square brackets, D forms with d. Groups on a side chain read outwards from the residue. No end group written: not given here. *: point of attachment. C20 diacid = O=C(O)CCCCCCCCCCCCCCCCCCC(=O)*; γGlu = O=C(O)[C@H](CCC(=O)[*:2])N[*:1]; NMeY = CN[C@@H](Cc1ccc(O)cc1)C(=O)O; αMeF = C[C@](N)(Cc1ccccc1)C(=O)O; AEEA = NCCOCCOCC(=O)O; Aib = CC(C)(N)C(=O)O
# Relative cAMP EC50 binned as category 1 = under 2 nM, category 2 = from 2 nM up to 6 nM, category 3 = 6 nM and over

Below are worked cases with known answers.
YXQGTFTSDXSXXLDKKAQXAFIEYLLEAGPSSXAPPPSGT (synthetic construct; SITE 2: note = 2-Aminoisobutyric Acid; SITE 10: note = 3-(4-Pyridyl)-L-alanine; SITE 12: note = L-ornithine; SITE 13: note = alpha-methyl-leucine; SITE 17: note = Lysine is chemically modified through conjugation of the epsilon-amino group of the Lysine side chain with (2-[2-(2-) [Example 275]; category 3
YXQGTFTSDXSRXLDKKAQXAFIEYLIEXGESSGAPPPSGE (non-natural residues, AEEA-γGlu-C18 diacid acyl on K, C-terminal amide; synthetic construct; SITE 2: note = 2-Aminoisobutyric Acid; SITE 10: note = 3-(4-Pyridyl)-L-alanine; SITE 13: note = alpha-methyl-leucine; SITE 17: note = Lysine is chemically modified through conjugation of the epsilon-amino group of the Lysine side chain with (2-[2-(2-Amino-ethoxy)-ethoxy]-acetyl)) [Example 225]; category 2
YXQGTFTSDXSQXLDKKAQXAFIEYLIAGGPSSGAPPPSGE (synthetic construct; SITE 2: note = 2-Aminoisobutyric Acid; SITE 10: note = 3-(4-Pyridyl)-L-alanine; SITE 13: note = alpha-methyl-leucine; SITE 17: note = Lysine is chemically modified through conjugation of the epsilon-amino group of the Lysine side chain with (gamma-Glu)2-CO-(CH2)16-CO2H; SITE 20:) [Example 883]; category 2
[NMeY][Aib]QGT[αMeF]TSDYSILLDKQAAK([AEEA-AEEA-γGlu-C20 diacid])AFVQWLIAGGPSSGEPPPSEG-NH2 [Example 301]; category 3
YXQGTFTSDFSQXLDKKAQXAFIEYLLEAGPSSGAPPPSGS (synthetic construct; SITE 2: note = 2-Aminoisobutyric Acid; SITE 13: note = alpha-methyl-leucine; SITE 17: note = Lysine is chemically modified through conjugation of the epsilon-amino group of the Lysine side chain with (2-[2-(2-Amino-ethoxy)-ethoxy]-acetyl)-(gamma-Glu)-CO-(CH2) 16-CO2H; SITE 20: n) [Example 775]; category 2
YXQGTFTSDFSXXLDKKAQXAFIEWLLEGGXSSGAPPPSGE (synthetic construct; SITE 2: note = 2-Aminoisobutyric Acid; SITE 12: note = L-ornithine; SITE 13: note = alpha-methyl-leucine; SITE 17: note = Lysine is chemically modified through conjugation of the epsilon-amino group of the Lysine side chain with (2-[2-(2-Amino-ethoxy)-ethoxy]-acetyl)-(gamma-Glu)) [Example 267]; category 2
YXQGTXTSDXXIXLDXKAAXEFIEXLIEGGPSSGEPPPSGSE (synthetic construct; SITE 2: note = 2-Aminoisobutyric Acid; SITE 6: note = alpha-methyl-2-fluoro-L-phenylalanine; SITE 10: note = 3-(4-Pyridyl)-L-alanine; SITE 11: note = alpha-methyl-L-serine; SITE 13: note = alpha-methyl-leucine; SITE 16: note = L-ornithine; SITE 17: note = Lysine is chemically mo) [Example 720]; category 1
YXQGTXTSDYSILLDKKAQXAFIEYLEEGGPSSGAPPPE (synthetic construct; SITE 2: note = 2-Aminoisobutyric Acid; SITE 6: note = alpha-methyl-2-fluoro-L-phenylalanine; SITE 17: note = Lysine is chemically modified through conjugation of the epsilon-amino group of the Lysine side chain with (2-[2-(2-Amino-ethoxy)-ethoxy]-acetyl)-(gamma-Glu)-CO-(CH2) 16-) [Example 408]; category 1

Which category fits this record: YXQGTXTSDXXIXLDXKAQXEFIEXLVEGGPSSGEPPPSGSE (synthetic construct; SITE 2: note = 2-Aminoisobutyric Acid; SITE 6: note = alpha-methyl-2-fluoro-L-phenylalanine; SITE 10: note = 3-(4-Pyridyl)-L-alanine; SITE 11: note = alpha-methyl-L-serine; SITE 13: note = alpha-methyl-leucine; SITE 16: note = L-ornithine; SITE 17: note = Lysine is chemically mo) [Example 752]
category 1
